Origin of the recorded values: patent US8105431B2

Assay: Absorption measurement in chloroform (maximum absorption wavelength, molar absorbance coefficient)
Format: physicochemical
Conditions: 1 cm cell
readout label: Molar Absorbance Coefficient

# count of solved cases: 3
{"columns": ["compound", "test value"],
 "data": [
  ["O=P(OB1n2c3c4ccccc4c2/N=C2N=C(/N=c4/c5ccccc5c(n41)=N3)c1ccccc1\\2)(c1ccccc1)c1ccccc1", "7.69 ×10^−4 Lmol^−1cm^−1"],
  ["ClB1n2c3c4ccccc4c2/N=C2N=C(/N=c4/c5ccccc5c(n41)=N3)c1ccccc1\\2 [Intermediate Compound 1, SubPcBCl, reference compound]", "5.10 ×10^−4 Lmol^−1cm^−1"],
  ["O=P(OB1n2c3c4ccccc4c2/N=C2N=C(/N=c4/c5ccccc5c(n41)=N3)c1ccccc1\\2)(Oc1ccccc1)Oc1ccccc1", "6.96 ×10^−4 Lmol^−1cm^−1"]
]}

Now for the compound whose Molar Absorbance Coefficient we want.
Requested read-out: Molar Absorbance Coefficient. Entry: CCCCOP(=O)(OCCCC)OB1n2c3c4ccccc4c2/N=C2N=C(/N=c4/c5ccccc5c(n41)=N3)c1ccccc1\2 7.78 ×10^−4 Lmol^−1cm^−1
